Target: mNaV1.6 (Mus musculus)
Sequence (Q9WTU3 whole entry): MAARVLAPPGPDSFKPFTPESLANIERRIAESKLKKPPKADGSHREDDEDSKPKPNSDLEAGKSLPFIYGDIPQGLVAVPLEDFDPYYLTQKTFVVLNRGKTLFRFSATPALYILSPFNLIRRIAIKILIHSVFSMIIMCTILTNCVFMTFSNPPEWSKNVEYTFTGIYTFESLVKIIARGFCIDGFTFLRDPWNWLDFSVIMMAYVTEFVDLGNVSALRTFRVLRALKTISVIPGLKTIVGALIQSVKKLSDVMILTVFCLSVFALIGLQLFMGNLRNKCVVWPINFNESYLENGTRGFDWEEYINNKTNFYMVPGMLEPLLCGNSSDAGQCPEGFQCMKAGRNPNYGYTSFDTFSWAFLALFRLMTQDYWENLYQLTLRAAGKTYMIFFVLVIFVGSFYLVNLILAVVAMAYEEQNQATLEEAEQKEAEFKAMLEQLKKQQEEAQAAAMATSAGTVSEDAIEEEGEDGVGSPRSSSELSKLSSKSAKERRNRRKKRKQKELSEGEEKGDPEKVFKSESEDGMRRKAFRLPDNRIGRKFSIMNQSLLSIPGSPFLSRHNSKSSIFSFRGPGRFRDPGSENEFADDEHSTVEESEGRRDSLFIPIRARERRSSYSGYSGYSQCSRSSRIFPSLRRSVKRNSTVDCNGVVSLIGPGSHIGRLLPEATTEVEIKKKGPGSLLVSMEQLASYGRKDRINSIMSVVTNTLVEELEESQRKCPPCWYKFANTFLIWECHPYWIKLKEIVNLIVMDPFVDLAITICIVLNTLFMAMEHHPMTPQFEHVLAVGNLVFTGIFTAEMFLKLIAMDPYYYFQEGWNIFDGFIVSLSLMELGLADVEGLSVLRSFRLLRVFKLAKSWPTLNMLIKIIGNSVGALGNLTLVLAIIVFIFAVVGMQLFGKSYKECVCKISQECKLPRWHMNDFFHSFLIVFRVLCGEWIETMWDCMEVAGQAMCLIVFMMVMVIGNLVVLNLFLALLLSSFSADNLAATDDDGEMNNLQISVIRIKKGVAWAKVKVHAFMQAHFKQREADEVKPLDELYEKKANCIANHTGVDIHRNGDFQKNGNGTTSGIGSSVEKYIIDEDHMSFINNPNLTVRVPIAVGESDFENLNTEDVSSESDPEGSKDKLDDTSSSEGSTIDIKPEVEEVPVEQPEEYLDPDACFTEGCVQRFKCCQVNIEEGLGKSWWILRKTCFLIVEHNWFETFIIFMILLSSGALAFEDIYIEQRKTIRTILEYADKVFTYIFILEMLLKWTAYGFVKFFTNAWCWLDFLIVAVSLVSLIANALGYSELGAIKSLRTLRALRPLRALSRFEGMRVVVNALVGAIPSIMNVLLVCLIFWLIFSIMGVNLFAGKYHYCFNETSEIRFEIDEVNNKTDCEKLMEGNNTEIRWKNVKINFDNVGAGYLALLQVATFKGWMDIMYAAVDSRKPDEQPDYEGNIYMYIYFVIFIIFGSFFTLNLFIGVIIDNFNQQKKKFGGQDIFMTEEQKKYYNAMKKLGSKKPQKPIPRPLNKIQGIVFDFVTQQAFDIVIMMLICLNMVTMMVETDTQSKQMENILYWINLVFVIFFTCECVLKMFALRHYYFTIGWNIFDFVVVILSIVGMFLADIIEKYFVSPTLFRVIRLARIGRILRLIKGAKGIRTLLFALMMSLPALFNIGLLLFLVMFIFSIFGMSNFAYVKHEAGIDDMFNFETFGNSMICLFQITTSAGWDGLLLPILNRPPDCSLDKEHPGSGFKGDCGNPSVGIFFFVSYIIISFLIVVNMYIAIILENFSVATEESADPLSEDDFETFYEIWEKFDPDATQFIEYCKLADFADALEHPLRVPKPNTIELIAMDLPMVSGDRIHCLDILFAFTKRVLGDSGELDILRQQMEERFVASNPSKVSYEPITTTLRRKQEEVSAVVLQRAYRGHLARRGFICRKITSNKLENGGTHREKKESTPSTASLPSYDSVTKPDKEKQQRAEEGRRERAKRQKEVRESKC
Assay: Two-electrode voltage-clamp on Xenopus laevis oocytes expressing NaV1.6
Conditions: read-out: Maximum % inhibition NaV1.6, peptide at 100 μM
Where a SMILES comes first, the peptide text is derived from it. Bridges are numbered along the chain shown (N, C = ends).
Reported inhibition at 100 µM values for a set of compounds
Provide only the numeric value, understood in %.

compound	units	inhibition at 100 µM
C[C@@H]1NC(=O)[C@H](CCCCN)NC(=O)[C@H](CCCNC(=N)N)NC(=O)[C@H](CCCNC(=N)N)NC(=O)[C@@H](N)CSSC[C@@H](C(N)=O)NC(=O)[C@H](CCCNC(=N)N)NC(=O)[C@H](CC(N)=O)NC(=O)[C@H](Cc2c[nH]c3ccccc23)NC(=O)[C@H](CCCNC(=N)N)NC1=O [PnCS1[W4K], CRRKARWNRC ^*] (H-CRRKARWNRC-NH2; disulfide 1-10)	%	92

QUERY: Request the reported inhibition at 100 µM associated with C[C@@H]1NC(=O)[C@H](Cc2ccc(O)cc2)NC(=O)[C@H](CCCNC(=N)N)NC(=O)[C@H](CCCNC(=N)N)NC(=O)[C@@H](N)CSSC[C@@H](C(N)=O)NC(=O)[C@H](CCCNC(=N)N)NC(=O)[C@H](CC(N)=O)NC(=O)[C@H](Cc2c[nH]c3ccccc23)NC(=O)[C@H](CCCNC(=N)N)NC1=O [PnCS1[W4Y], CRRYARWNRC ^*] (H-CRRYARWNRC-NH2; disulfide 1-10)
RESULT: 42

QUERY: Another compound: C[C@@H]1NC(=O)[C@H](Cc2c[nH]c3ccccc23)NC(=O)[C@H](CCCNC(=N)N)NC(=O)[C@H](CCCNC(=N)N)NC(=O)[C@@H](N)CSSC[C@@H](C(N)=O)NC(=O)[C@H](CCC(=O)O)NC(=O)[C@H](CC(N)=O)NC(=O)[C@H](Cc2c[nH]c3ccccc23)NC(=O)[C@H](CCCNC(=N)N)NC1=O [PnCS1[R9E], CRRWARWNEC ^*] (H-CRRWARWNEC-NH2; disulfide 1-10)
RESULT: 11

QUERY: Then this compound: C[C@@H]1NC(=O)[C@H](C)NC(=O)[C@H](CCCNC(=N)N)NC(=O)[C@H](CCCNC(=N)N)NC(=O)[C@@H](N)CSSC[C@@H](C(N)=O)NC(=O)[C@H](CCCNC(=N)N)NC(=O)[C@H](CC(N)=O)NC(=O)[C@H](Cc2c[nH]c3ccccc23)NC(=O)[C@H](CCCNC(=N)N)NC1=O [PnCS1[W4A], CRRAARWNRC ^*] (H-CRRAARWNRC-NH2; disulfide 1-10)
RESULT: 76

QUERY: Same question for C[C@@H]1NC(=O)[C@H](CC(N)=O)NC(=O)[C@H](Cc2c[nH]c3ccccc23)NC(=O)[C@H](CCCNC(=N)N)NC(=O)[C@H](C)NC(=O)[C@H](Cc2c[nH]c3ccccc23)NC(=O)[C@H](CCCNC(=N)N)NC(=O)[C@H](CCCNC(=N)N)NC(=O)[C@@H](N)CSSC[C@@H](C(N)=O)NC1=O [PnCS1[R9A], CRRWARWNAC ^*] (H-CRRWARWNAC-NH2; disulfide 1-10) please.
RESULT: 79

====

Where a SMILES comes first, the peptide text is derived from it. Bridges are numbered along the chain shown (N, C = ends).
Let's go through some recorded IC50 values for UniProt Q14524 together.
Sequence (Q14524 whole entry): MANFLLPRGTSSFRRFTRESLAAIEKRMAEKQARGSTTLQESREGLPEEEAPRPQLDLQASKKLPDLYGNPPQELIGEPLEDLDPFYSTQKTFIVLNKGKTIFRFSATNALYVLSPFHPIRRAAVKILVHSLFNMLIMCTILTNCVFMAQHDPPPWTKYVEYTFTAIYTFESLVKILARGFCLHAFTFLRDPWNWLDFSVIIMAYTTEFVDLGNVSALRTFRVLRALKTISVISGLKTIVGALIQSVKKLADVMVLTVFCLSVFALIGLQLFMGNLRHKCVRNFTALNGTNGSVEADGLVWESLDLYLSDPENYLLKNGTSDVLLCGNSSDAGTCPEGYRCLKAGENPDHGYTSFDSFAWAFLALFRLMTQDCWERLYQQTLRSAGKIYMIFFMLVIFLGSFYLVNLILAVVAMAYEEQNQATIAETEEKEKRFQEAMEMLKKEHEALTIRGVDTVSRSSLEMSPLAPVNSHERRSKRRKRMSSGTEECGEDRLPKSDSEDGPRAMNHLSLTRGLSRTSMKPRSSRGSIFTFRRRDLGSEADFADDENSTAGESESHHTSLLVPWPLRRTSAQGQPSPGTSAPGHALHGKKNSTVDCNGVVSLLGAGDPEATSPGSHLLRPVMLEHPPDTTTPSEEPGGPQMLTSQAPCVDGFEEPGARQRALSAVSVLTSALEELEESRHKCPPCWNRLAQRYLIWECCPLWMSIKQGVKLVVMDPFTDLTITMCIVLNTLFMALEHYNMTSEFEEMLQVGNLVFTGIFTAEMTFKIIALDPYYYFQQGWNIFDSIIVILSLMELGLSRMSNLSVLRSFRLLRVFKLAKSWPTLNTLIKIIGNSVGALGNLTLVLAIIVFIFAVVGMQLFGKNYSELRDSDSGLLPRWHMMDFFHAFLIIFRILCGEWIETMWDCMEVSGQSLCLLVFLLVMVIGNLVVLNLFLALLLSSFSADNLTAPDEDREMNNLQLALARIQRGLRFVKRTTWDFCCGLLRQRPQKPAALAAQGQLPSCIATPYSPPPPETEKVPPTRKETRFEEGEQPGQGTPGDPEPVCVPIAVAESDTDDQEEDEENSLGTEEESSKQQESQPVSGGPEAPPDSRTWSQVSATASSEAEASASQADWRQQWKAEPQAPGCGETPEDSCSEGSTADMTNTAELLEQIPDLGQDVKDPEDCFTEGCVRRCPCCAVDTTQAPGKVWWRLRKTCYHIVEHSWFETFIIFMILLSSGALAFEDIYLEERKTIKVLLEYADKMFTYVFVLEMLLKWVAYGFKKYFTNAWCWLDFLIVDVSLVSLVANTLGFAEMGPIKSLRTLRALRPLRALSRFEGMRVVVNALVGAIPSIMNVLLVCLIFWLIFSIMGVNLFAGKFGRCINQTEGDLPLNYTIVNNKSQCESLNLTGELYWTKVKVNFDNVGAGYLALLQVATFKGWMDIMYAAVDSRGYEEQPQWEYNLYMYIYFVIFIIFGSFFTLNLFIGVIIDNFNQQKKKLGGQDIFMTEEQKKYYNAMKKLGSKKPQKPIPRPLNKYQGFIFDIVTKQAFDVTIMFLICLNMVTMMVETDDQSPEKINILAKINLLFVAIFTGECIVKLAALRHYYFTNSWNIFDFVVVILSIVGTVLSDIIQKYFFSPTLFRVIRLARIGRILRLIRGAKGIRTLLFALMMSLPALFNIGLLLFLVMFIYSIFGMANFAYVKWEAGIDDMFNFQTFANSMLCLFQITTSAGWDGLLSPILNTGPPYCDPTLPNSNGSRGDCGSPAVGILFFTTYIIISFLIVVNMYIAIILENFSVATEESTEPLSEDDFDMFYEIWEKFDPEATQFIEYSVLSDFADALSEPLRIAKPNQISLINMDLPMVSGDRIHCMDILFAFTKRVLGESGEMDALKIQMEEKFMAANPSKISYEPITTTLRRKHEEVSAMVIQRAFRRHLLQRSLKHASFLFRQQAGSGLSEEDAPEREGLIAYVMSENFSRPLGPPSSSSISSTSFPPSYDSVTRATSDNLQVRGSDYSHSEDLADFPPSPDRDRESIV
Could you give me the number in µM? Just the number is fine.

compound	targetOfAssay	units	IC50
C[C@@H]1NC(=O)[C@H](CC(N)=O)NC(=O)[C@H](Cc2c[nH]c3ccccc23)NC(=O)[C@H](CCCNC(=N)N)NC(=O)[C@H](C)NC(=O)[C@H](Cc2c[nH]c3ccccc23)NC(=O)[C@H](CCCNC(=N)N)NC(=O)[C@H](CCCNC(=N)N)NC(=O)[C@@H](N)CSSC[C@@H](C(N)=O)NC1=O [PnCS1[R9A], CRRWARWNAC ^*] (H-CRRWARWNAC-NH2; disulfide 1-10)	UniProt Q14524	µM	9.2

From here, focus on the item given below.
QUERY: Item C[C@@H]1NC(=O)[C@H](Cc2c[nH]c3ccccc23)NC(=O)[C@H](CCCCN)NC(=O)[C@H](CCCNC(=N)N)NC(=O)[C@@H](N)CSSC[C@@H](C(N)=O)NC(=O)[C@H](CCCNC(=N)N)NC(=O)[C@H](CC(N)=O)NC(=O)[C@H](Cc2c[nH]c3ccccc23)NC(=O)[C@H](CCCNC(=N)N)NC1=O [PnCS1[R3K], CRKWARWNRC ^*] (H-CRKWARWNRC-NH2; disulfide 1-10) has what recorded IC50?
RESULT: 2.7
